biological target: apo-human transferrin (apo-hTf) (Homo sapiens); assay: Far-UV circular dichroism titration of apo-hTf, secondary structure content; settings: compound concentration 2 (M)
Sequence (P02787 20-698): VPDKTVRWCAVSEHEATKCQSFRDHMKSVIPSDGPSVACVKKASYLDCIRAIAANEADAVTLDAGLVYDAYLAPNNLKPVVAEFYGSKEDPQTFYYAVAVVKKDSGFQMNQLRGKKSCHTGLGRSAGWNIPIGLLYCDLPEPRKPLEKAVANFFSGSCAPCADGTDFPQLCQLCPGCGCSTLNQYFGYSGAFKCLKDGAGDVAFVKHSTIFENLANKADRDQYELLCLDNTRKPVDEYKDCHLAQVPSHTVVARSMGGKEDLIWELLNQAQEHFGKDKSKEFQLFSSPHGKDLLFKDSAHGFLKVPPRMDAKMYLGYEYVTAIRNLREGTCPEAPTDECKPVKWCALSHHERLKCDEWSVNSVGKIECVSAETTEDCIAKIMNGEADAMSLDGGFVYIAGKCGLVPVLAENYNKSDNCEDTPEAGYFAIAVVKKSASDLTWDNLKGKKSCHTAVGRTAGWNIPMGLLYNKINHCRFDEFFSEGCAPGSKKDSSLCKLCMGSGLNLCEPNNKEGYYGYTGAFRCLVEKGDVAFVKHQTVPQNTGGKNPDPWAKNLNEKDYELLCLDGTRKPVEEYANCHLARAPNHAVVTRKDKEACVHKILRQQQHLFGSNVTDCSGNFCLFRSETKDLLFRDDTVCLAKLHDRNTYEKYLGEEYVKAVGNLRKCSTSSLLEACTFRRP
Reported β-sheet content of apo-hTf values for the following molecules.
assay endpoint: β-sheet content of apo-hTf (%)

[[record]]
molecule = "C1CCCC1.C1CCCC1.[Cl][Nb][Cl] [Cp2NbCl2]"
observed = 19

[[record]]
molecule = "[Cl-].[Cl-].[V+4].c1cc[cH-]c1.c1cc[cH-]c1 [Cp2VCl2]"
observed = 18.9

[[record]]
molecule = "[Cl-].[Cl-].[Mo+4].c1cc[cH-]c1.c1cc[cH-]c1 [Cp2MoCl2]"
observed = 18.9

[[record]]
molecule = "[Cl][Zr+2][Cl].c1cc[cH-]c1.c1cc[cH-]c1 [Cp2ZrCl2]"
observed = 18.5

[[record]]
molecule = "N.N.[Cl][Pt][Cl] [(NH3)2Pt(II)Cl2, cis-diamminedichloroplatinum (II), reference compound]"
observed = 18.5

[[record]]
molecule = "[Cl-].[Cl-].[Hf+4].c1cc[cH-]c1.c1cc[cH-]c1 [Cp2HfCl2]"
observed = 17.9

[[record]]
molecule = "[Cl-].[Cl-].[Ti+4].c1cc[cH-]c1.c1cc[cH-]c1 [Cp2TiCl2, titanocene dichloride]"
observed = 18.5

[[record]]
molecule = "C1CCCC1.C1CCCC1.[Cl][W][Cl] [Cp2WCl2]"
observed = 18.6

